test: growth inhibition of GSK3B-pretreated HCT116 cells – cell-based, CellTiter-Glo, 0.2 to 20 µM (AID 1117336); details: HCT116 viability after GSK3B inhibitor, at 20 µM, stronger effect = higher value
Observation type: viability decrease (%)

INSERT INTO assay_data (compound, recorded_value) VALUES
  ('c1ccc2c(c1)Nc1ccccc1S2', 77.7),
  ('CN(C)C(=S)SSC(=S)N(C)C', 65),
  ('CC(=O)C1CCOC1=O (stereo not given)', 13.5),
  ('C[C@]12C=CC(=O)C=C1CC[C@@H]1[C@@H]2CC[C@@]2(C)[C@H]1CC[C@]2(C)O', 38.6),
  ('O=c1[nH]c2ccccc2n1C1CCN(CCCC(c2ccc(F)cc2)c2ccc(F)cc2)CC1', 98.9),
  ('COC(=O)[C@@H](N)CCCN/C(N)=N/[N+](=O)[O-]', 23.3),
  ('CC(C)=C[C@@H]1[C@@H](C(=O)OCc2coc(Cc3ccccc3)c2)C1(C)C', 14.7),
  ('CCN(CC)N(O)N=O', 2.3),
  ('NCC(CC(=O)O)c1ccc(Cl)cc1 (stereo not given)', -7.8),
  ('CN1C(=O)COc2c(C(=O)NC3CN4CCC3CC4)cc(Cl)cc21 (stereo not given)', -9.5),
  ('Clc1ccc(CCC(Cn2ccnc2)Sc2c(Cl)cccc2Cl)cc1 (stereo not given)', 101),
  ('CC(C)(C)NCC(O)c1cc(Cl)c(N)c(C(F)(F)F)c1 (stereo not given)', -16.8),
  ('O=P1(N(CCCl)CCCl)NCCCO1 (stereo not given)', -1.15),
  ('O=c1oc2ccccc2c(O)c1C(CC(O)c1ccc(-c2ccc(Br)cc2)cc1)c1ccccc1 (stereo not given)', 100),
  ('O=C1OC(CCN2CCCCC2)OC1(c1ccccc1)c1ccccc1 (stereo not given)', 0.7),
  ('CC[N+](CC)(CC)CC', -2),
  ('COP(=S)(OC)Oc1ccc(S(N)(=O)=O)cc1', -4.35),
  ('CN(C)CCc1ccc(O)cc1', 1.5),
  ('C=CCN1C[C@H](C)N([C@H](c2ccc(C(=O)N(CC)CC)cc2)c2cccc(OC)c2)C[C@H]1C', 4.6),
  ('CC(C)(C)NCC(O)c1cc(Cl)c(N)c(Cl)c1 (stereo not given)', -1.4),
  ('CCOP(=S)(OCC)O/N=C(\C#N)c1ccccc1', -25.2),
  ('CC(C(O)c1ccccc1)N(C)C/C=C/c1ccccc1 (stereo not given)', -101),
  ('Clc1ccc(CSC(Cn2ccnc2)c2ccc(Cl)cc2Cl)cc1 (stereo not given)', 101),
  ('Fc1cc(Br)ccc1CBr', 3.1),
  ('Cc1c(Cl)c(=O)oc2cc(OP(=O)(OCCCl)OCCCl)ccc12', 12.2);
